For each of the compounds below, state its IC50.
target.desc: UniProt P00367
Sequence (P00367 54-558): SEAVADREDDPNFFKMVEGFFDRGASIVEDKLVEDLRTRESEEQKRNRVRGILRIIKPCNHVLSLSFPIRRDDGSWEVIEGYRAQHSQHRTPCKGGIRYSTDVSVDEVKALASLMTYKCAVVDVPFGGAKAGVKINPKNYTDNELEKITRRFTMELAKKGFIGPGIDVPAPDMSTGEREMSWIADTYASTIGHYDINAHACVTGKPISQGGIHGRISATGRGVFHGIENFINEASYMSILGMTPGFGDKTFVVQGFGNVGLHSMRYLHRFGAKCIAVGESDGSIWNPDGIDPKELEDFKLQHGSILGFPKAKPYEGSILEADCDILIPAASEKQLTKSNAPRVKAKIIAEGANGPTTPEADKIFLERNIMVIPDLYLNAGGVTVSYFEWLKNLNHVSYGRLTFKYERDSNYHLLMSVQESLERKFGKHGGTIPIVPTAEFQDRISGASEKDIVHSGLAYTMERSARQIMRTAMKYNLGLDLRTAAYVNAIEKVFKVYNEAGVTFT
assay.details: spectrophotometric GDH activity in […] cell homogenate
Answers are plain numbers, in nM.

chemical.string	target.desc	IC50 / nM
O=C(O[C@@H]1Cc2c(O)cc(O)cc2O[C@@H]1c1cc(O)c(O)c(O)c1)c1cc(O)c(O)c(O)c1	UniProt P00367	1050

Here is another compound to look at.
Value of measured IC50 for the entry Nc1nc2c(ncn2[C@@H]2O[C@H](COP(=O)(O)OP(=O)(O)OP(=O)(O)O)[C@@H](O)[C@H]2O)c(=O)[nH]1 : 48
